Test: in vitro plasma stability, rat plasma
Format: in vitro ADME
Settings: after 4 h
reported-metric: PS (plasma stability), rat (%remaining)

O=C(OCc1cc(Cl)cc(Cl)c1)N1CCN(C2CCN(C(=O)c3ccc4c(c3)COB4O)CC2)CC1 :: 63.0
O=C(OCc1cc(Cl)cc(Cl)c1)N1CCN(C2CCN(C(=O)c3cccc4c3B(O)OC4)C2)CC1 (centres unmarked) :: 67.9
O=C(OCc1cc(Cl)cc(Cl)c1)N1CCN(C2CCN(C(=O)c3ccc4c(c3)B(O)OC4)C2)CC1 (centres unmarked) :: 64.5
O=C(OCc1cc(Cl)cc(Cl)c1)N1CCN(C2CN(C(=O)c3ccc4c(c3)COB4O)C2)CC1 :: 60.1
Cc1cc(C)cc(COC(=O)N2CCN(C3CN(C(=O)c4ccc5c(c4)B(O)OC5)C3)CC2)c1 :: 68.6
Cc1cc(C)cc(COC(=O)N2CCN(C3CCN(C(=O)c4ccc5c(c4)B(O)OC5)C3)CC2)c1 (centres unmarked) :: 59.5
O=C1S/C(=C\c2ccc(OCc3ccc(B(O)O)cc3)cc2)C(=O)N1Cc1ccc(F)cc1 [HA155, reference compound] :: 65.7
O=C(OCc1cc(Cl)cc(Cl)c1)N1CCN(C2CCN(C(=O)c3ccc4c(c3)B(O)OC4)CC2)CC1 :: 61.6
